- System: PPARg:RXRa 30nM:10nM, anti-RXR (NR concentration 30 nM, RXRa partner concentration 10 nM)
- experiment_notes: PBM binding z-score (relative to random genomic background probes); higher = stronger binding; sequences stand for … in GC…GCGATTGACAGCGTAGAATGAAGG
Decide by PBM binding z-score: equal to or exceeding 1 means 1, less means -1.

CATACAGGGTCAGCTAGGCCAGAGTAGGGACGGC | -1

Consider now this further sequence.
Q: Determine whether this sequence has PBM binding z-score no lower than 1: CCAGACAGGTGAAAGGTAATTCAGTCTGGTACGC
Ans: 1

----------
- Tested on: LXRa:RXRa (NR concentration 270 nM, RXRa partner concentration 90 nM)
- experiment_notes: PBM binding z-score (relative to random genomic background probes); higher = stronger binding; sequences stand for … in GC…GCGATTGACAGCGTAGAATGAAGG
Label False if PBM binding z-score falls below 1; label True in every other case.

Consider the worked cases shown below.
CCTCGGAGGACAACAGGAGGTCGGAGCTGCCAGA | False
TAGCCTAGCTCATGCGGGCCAGTATAGTGTCGGC | False
ATCTCTAGGTAAAGATCAGTGAAAGATCGATAGA | False
AGAATGAGGTTATGATCAGGGAAACAGAATACAT | True
TAGCCTAGGTCATGCGGGCCAGTGTAGTGTCGGC | True

Q: hey, is PBM binding z-score for this one >= 1? CGTCCAAGGTCATAGGAGGTCAGTGGAGACAGAT
Ans: True

Q: Try this sequence next: GCGACTGGGGCATCAACAGGTTACCATAACTTAA
Ans: False

Q: # iterate: CGTCAAACTTCAAGGTAACGTAACAGAAAGCAGC
Ans: False

Q: Follow-up entry: CATACAGGGTCAGCTCGGCCAGAGTAGGGACGGC
Ans: True

Q: Also, ATCTCCAGGTAACAAGTTCAGTGAAAGAGAGGAC please.
Ans: True

Q: Also CGTCCAAAGTCAATGCTAGGTCAGTGAAAGCATT , if possible.
Ans: False

Q: Now the same for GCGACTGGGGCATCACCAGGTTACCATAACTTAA
Ans: False

----------
- Test system: THRa:RXRa (NR concentration 90 nM, RXRa partner concentration 90 nM)
- experiment_notes: PBM binding z-score (relative to random genomic background probes); higher = stronger binding; sequences stand for … in GC…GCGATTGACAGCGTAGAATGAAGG
Parameter PBM binding z-score: see the listing below.
Number only, no unit.

CCTATTAGTTGACCATAAGGGCGACCGAAGCTCG | 0.798
TGAATGAGGTTATAAGATCAGAGAACGTTGCAAA | 1.55
TCTCGGAGGACACGATAGGTCAGAGCTCGACATC | 2.47
CCTTCCGGGTCACGAGGTTATAGCACGACGAGCG | 4.22
ACTTTTAGTTGACTTAGGGCAACCGATACGACGC | 1.64

Now look at this one.
Q: Find the recorded PBM binding z-score belonging to TCGAGTAGGTTACCAACGGGGCATTCAGCTTTCT and report it.
Ans: 0.042

----------
- Tested on: RXRa DBDmut IVT, anti-RXR (DBD mutation: RXRa K156A/R161A, NR concentration 90 nM)
- experiment_notes: PBM binding z-score (relative to random genomic background probes); higher = stronger binding; sequences stand for … in GC…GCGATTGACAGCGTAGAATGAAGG
Please mark satisfied if the recorded PBM binding z-score is equal to or greater than 0.6, and not satisfied if it falls below.

Worked cases, answers included:
CCGACTGGGGCAAGGTTACCATTACGCACAGCCA | not satisfied
CCTAGTTGGTAAAGGTCACACACGCTATAGGTAC | satisfied
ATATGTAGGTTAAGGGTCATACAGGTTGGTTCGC | satisfied

Q: Please indicate if the recorded PBM binding z-score for CCTCGTTGGTCAGGAGGTCACACACCGGATATGA meets or exceeds 0.6.
Ans: satisfied

Q: Repeat for the following sequence: CGTCAAAGTTCAACTAAGGTAACGTAAAGCACGC
Ans: satisfied

Q: Continue with CCTCGTAGGACAGAAGGTCAGAGCTGTCCGCTTT
Ans: not satisfied

----------
- System: PPARg homodimer (NR concentration 180 nM)
- experiment_notes: PBM binding z-score (relative to random genomic background probes); higher = stronger binding; sequences stand for … in GC…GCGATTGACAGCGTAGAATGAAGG
assay_metric: PBM binding z-score
Please give only the number in your answer, with no unit.

Q: Observed PBM binding z-score on PPARg homodimer (NR concentration 180 nM) for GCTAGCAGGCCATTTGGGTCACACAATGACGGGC , please.
Ans: 0.139

Q: Again, but for ATACCAAGGTGATAGTGAGGTCGTTGATACTAAC
Ans: 1.01

Q: Same for TCTTGTAGATCAAGCAGGTCAAGAAAGCCTGAGT
Ans: 0.82

Q: Another sequence: CTCGAAAGGTCGGCTGAGGTGAGTATACGGATAA
Ans: 1.16

Q: For CGCCAAAGTTCAACTAAGGTAACGTAAAGCACGC then?
Ans: 3.81

Q: Try this sequence too: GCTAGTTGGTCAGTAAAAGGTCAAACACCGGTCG
Ans: 4.94

----------
- System: PPARg:RXRa 90nM:30nM, anti-RXR (NR concentration 90 nM, RXRa partner concentration 30 nM)
- experiment_notes: PBM binding z-score (relative to random genomic background probes); higher = stronger binding; sequences stand for … in GC…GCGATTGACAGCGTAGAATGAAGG
So basically: PBM binding z-score at 2 or higher? That is rule met. Lower than 2? That is rule not met.

CATACAGGGTCAGCTAGGCAAGAGTAGGGACGGC | rule not met
CAGCCTAGGTCAGGGCCAGGATAGGAGGAACGTT | rule not met
ATATGTAGGGTAAGGGTCATTCAGGTTGGTTCGC | rule met

Q: Is PBM binding z-score for CCTACTGGGCCATCAGTTCATTGATATCAACGTT at or above 2?
Ans: rule not met

Q: # iterate: TCATATAGGTAAAAGGTTAAAGTCGGTGTGGTAA
Ans: rule met

Q: Next: TCTTGTAGATCAGCAGGTTAAGCAAGCTGGCCAA
Ans: rule not met

Q: Try this sequence too: CCTATTAGTTGACCATATGGGCAACCGAAGCTCG
Ans: rule not met

Q: Then this sequence: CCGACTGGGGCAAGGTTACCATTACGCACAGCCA
Ans: rule met

Q: And ATCTCTAGGTAACAAGTTCAGTTAAAGAGAGGAC ?
Ans: rule not met

Q: Now consider TCGAGTAGGTTAGCAATGGGGCATTCAGCTTTCT .
Ans: rule not met

Q: Same again, this time with TCTTGTAGATCAGCAGGCTAAGAAAGCTGGCCAA
Ans: rule not met

Q: Repeat with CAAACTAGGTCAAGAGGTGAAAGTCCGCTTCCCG
Ans: rule met

----------
- Tested on: PPARg:RXRa 90nM:30nM, anti-RXR (NR concentration 90 nM, RXRa partner concentration 30 nM)
- experiment_notes: PBM binding z-score (relative to random genomic background probes); higher = stronger binding; sequences stand for … in GC…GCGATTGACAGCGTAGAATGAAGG
assay_metric: PBM binding z-score
Reply with just the number.

CGTCCAAGGTCAGCAGATCAGTGAAAGCGACGTG | 1.51
GCTTGTAGATCTAGGTTAAGAAAGACTAAGCTAA | 0.418
ATATGTAGGTTTGCTGGGGTCATTCAGACTAGGC | 2.19
GCTAGTTGGTCAGGAAAAGGTCACACACCGGTCG | 3.07
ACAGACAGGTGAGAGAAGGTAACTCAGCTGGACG | 0.154

Turning now to a further record.
Q: // PBM binding z-score lookup, key: CGTCCAAGGTCATAGGATGTCAGTGAAGACAGAT
Ans: 3.95

----------
- System: RARg:RXRa (NR concentration 270 nM, RXRa partner concentration 90 nM)
- experiment_notes: PBM binding z-score (relative to random genomic background probes); higher = stronger binding; sequences stand for … in GC…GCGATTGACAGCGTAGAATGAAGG
Property: PBM binding z-score; scope: individual sequences
Kindly provide the number alone.

AGTCAAAGTTTACTAGGTAACGTAAGATTCAGCT | 0.885
CCTACTGGGCCATCAGGTCTTTGATATCAACGTT | -0.0925
ATATGTAGGTTACATCCGGGGCATTCAGGCTATG | 1.76

Q: Quick check: PBM binding z-score on RARg:RXRa (NR concentration 270 nM, RXRa partner concentration 90 nM), item GCGACTCGGGCATCAGCAGGTTACCATAACTTAA ?
Ans: 0.257

Q: Then GTACCAAGGTGAATAGGTCGTTGGTGAGTAGGCG ?
Ans: 2.86

Q: Field entry: ATACCAAGGTGATCGTGCGGTCGTTGATACTAAC
Ans: 0.886
